Biological target: Cytoplasmic tyrosine-protein kinase BMX (Homo sapiens) (UniProt P51813)
Sequence (P51813 whole entry): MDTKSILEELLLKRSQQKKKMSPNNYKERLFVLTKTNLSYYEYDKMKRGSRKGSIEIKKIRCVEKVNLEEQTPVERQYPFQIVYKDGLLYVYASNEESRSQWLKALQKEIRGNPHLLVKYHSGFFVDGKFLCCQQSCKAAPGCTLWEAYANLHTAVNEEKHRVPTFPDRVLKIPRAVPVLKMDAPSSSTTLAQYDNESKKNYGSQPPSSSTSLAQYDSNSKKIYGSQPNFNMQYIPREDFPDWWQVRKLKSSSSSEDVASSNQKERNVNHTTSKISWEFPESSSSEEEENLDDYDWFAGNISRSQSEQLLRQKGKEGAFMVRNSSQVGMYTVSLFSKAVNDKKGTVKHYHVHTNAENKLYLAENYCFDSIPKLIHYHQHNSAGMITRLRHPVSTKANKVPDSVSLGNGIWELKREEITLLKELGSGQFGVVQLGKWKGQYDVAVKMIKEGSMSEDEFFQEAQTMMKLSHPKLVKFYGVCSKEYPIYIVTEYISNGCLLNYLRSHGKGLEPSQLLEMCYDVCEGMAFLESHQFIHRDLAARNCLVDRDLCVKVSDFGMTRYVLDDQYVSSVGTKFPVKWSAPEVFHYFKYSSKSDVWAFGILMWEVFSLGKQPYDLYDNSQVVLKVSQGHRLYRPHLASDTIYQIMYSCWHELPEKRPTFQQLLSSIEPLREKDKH
Conditions: at 0.1 µM
Description: GSK_PKIS: BMX mean inhibition at 0.1 uM [Nanosyn]
Below, each entry is listed with its recorded inhibition.
Metric name: inhibition (%)

Smiles code	Metric name	Value observed
Cc1cccc(Nc2ncc(-c3ccccc3)o2)c1	inhibition	4.13
Fc1ccc(-c2cc(-c3c[nH]nc3-c3ccccn3)ccn2)cc1	inhibition	-2.56
COc1cc(Nc2nccc(Nc3ccc4c(C)n[nH]c4c3)n2)cc(OC)c1OC	inhibition	17.5
CCN(CC)S(=O)(=O)c1ccc(OC)c(Nc2ncc(-c3ccccc3)o2)c1	inhibition	-2.19
CCOc1ccc2c(-c3ccnc(Nc4cccc(C(F)(F)F)c4)n3)cnn2n1	inhibition	3.34
c1ccc(COc2ccc(Nc3ncnc4ccc(-c5ccco5)cc34)cc2)cc1	inhibition	-1

---

Molecular target: Testis-specific serine/threonine-protein kinase 2 (Homo sapiens);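 note: each value is the mean percent inhibition of TSSK2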
Sequence (whole entry): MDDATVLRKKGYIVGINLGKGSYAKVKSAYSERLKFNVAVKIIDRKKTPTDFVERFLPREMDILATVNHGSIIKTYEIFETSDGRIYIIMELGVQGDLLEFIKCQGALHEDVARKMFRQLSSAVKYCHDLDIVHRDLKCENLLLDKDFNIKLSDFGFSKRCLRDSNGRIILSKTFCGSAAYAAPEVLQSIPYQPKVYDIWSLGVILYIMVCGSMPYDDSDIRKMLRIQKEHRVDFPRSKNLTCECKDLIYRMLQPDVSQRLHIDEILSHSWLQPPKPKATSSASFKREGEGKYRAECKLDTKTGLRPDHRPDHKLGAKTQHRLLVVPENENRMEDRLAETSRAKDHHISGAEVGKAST
Settings: at 1 µM
Metric name: inhibition (%)

Smiles code	Metric name	Value observed
COc1cc(/C=N/Nc2ncnc3[nH]ncc23)ccc1O	inhibition	1.44
FC(F)(F)c1cccc(-c2nn3ncccc3c2-c2ccnc(Nc3ccc4c(c3)OCCO4)n2)c1	inhibition	-1.1
CCn1c(-c2nonc2N)nc2ccccc21	inhibition	-0.93
NS(=O)(=O)c1ccc(Nc2ncc(-c3ccccc3)o2)cc1	inhibition	1.1
O=S(=O)(CCNCc1ccc(-c2ccc3ncnc(Nc4ccc(OCc5cccc(F)c5)c(Cl)c4)c3c2)o1)c1ccccc1	inhibition	3.64

---

Below, each entry is listed with its recorded inhibition.
Biological target: Tyrosine-protein kinase Srms (Homo sapiens) (UniProt Q9H3Y6);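 note: reported value is a mean of the inhibition readings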
Sequence (Q9H3Y6 whole entry): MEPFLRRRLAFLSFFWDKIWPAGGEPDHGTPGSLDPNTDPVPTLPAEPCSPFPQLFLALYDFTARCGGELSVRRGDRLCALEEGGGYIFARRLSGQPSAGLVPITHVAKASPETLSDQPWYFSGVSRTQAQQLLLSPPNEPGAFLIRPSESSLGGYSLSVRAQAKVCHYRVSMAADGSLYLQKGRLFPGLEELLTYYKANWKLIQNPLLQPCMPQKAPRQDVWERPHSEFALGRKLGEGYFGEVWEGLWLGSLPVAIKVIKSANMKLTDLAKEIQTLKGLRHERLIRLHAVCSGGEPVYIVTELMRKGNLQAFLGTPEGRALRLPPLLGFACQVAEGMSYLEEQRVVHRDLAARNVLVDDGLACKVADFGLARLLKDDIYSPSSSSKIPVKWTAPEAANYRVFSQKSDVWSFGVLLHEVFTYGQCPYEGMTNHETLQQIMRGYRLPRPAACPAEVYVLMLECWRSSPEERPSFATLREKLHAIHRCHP
Settings: at 0.1 µM
Metric name: inhibition

Smiles code	Value observed
COc1cc2ncn(-c3cc(OCc4ccccc4C(F)(F)F)c(C(=O)N(C)C)s3)c2cc1OC	1.16%
Nc1nc(-c2ccc(F)cc2)c(-c2ccc3ncccc3n2)s1	0.67%
CCn1cc(-c2ccnc3[nH]ccc23)c(-c2cccc(NC(=O)Nc3ccc(OCc4ccccc4)cc3)c2)n1	-1.11%
COc1cc(/C=N/Nc2ncnc3[nH]ncc23)ccc1O	-0.95%
FC(F)(F)c1cccc(-c2nn3ncccc3c2-c2ccnc(Nc3ccc4c(c3)OCCO4)n2)c1	0.82%
CCn1c(-c2nonc2N)nc2ccccc21	1.09%
c1ccc(-c2nc3n(c2-c2ccc4c(c2)OCO4)CCC3)nc1	-0.53%
CNC(=O)c1cc(-c2ccc(F)cc2)cc(-c2ccc(S(=O)(=O)N3CCCC3)cc2)c1N	2.11%
[O-][S+]1CCN(Cc2ccc(-c3ccc4ncnc(Nc5ccc(OCc6cccc(F)c6)c(Cl)c5)c4c3)o2)CC1	0.4%
CC(C)COC(=O)c1ccc2c(c1)/C(=C/Nc1ccc(S(N)(=O)=O)cc1)C(=O)N2	5.32%
CC(=O)NCc1cccc(C#Cc2cncnc2Nc2ccc(OCc3cccc(F)c3)c(Cl)c2)c1	0.33%
COc1cccc(-n2ncc3c(N/N=C/c4ccc(F)cc4)ncnc32)c1	-1.01%
COc1cccc(-c2c[nH]c3c(N/N=C/c4ccncc4)ncnc23)c1	1.92%
O=C(O[C@H]1CN[C@H](C#Cc2cc3ncnc(Nc4ccc(Cc5ccccc5)cc4)c3s2)C1)N1CCOCC1	-3.02%
CS(=O)(=O)CCNCc1ccc(-c2ccc3ncnc(Nc4ccc(OCc5ccccc5)c(C(F)(F)F)c4)c3c2)o1	-2.3%
CC(=O)Nc1cccc(C#Cc2cncnc2Nc2ccc(OCc3cccc(F)c3)c(Cl)c2)c1	2.87%
Nc1ncc(-c2cccc(S(N)(=O)=O)c2)c2scc(-c3ccc(F)c(Cl)c3)c12	-1.03%
NS(=O)(=O)c1ccc(Nc2ncc(-c3ccccc3)o2)cc1	-0.76%
CCn1c(-c2nonc2N)nc2c(C#CC(C)(C)O)ncc(OC3CCNCC3)c21	0.02%
Fc1cccc(COc2ccc(Nc3ncnc4sc(-c5ccco5)cc34)cc2Cl)c1	-3.52%
NS(=O)(=O)c1ccc(N/N=C2\C(=O)Nc3ccc4ncccc4c32)cc1	-0.11%
CCCN1CCC(c2ccc(Nc3nc(Nc4cc(F)ccc4C(N)=O)c4cc[nH]c4n3)c(OC)c2)CC1	1.02%
COC(=O)Nc1nc2ccc(S(=O)(=O)c3ccc(NC(=O)Nc4cc(C(F)(F)F)ccc4F)cc3)cc2[nH]1	-0.37%
COc1cc(Nc2nccc(Nc3ccc4c(C)n[nH]c4c3)n2)cc(OC)c1OC	4.33%
